These measurements were taken from patent US20260174875A1.

Biological target: human GLP-1 receptor (hGLP-1R) (Homo sapiens)
Construct: expressed in transfected cells
Sequence (P43220 24-463): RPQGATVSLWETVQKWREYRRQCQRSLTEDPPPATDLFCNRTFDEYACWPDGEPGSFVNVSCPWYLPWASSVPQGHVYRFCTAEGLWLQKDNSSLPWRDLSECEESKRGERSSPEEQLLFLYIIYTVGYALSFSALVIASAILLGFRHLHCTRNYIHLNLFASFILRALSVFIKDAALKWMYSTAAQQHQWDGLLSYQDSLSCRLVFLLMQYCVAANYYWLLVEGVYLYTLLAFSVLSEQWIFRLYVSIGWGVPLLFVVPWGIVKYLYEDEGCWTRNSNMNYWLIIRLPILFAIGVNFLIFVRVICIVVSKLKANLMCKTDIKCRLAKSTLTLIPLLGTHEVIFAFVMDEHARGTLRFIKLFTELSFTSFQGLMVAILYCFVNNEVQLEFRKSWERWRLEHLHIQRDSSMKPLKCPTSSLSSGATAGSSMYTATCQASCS
Test: GLP-1 receptor assay, method A (CRE-luciferase reporter, BHK cells)
Assay type: cell-based
Details: method A, absence of HSA; read-out: hGLP-1R Potency, no HSA, EC50
Experimental: To assess how the activation of the receptors is potentially influenced by the presence of human serum albumin (HSA), the in vitro assays were performed in the absence of HSA and presence of 1% (w/v) HSA. Cells at approximately 80-90% confluence were washed once in PBS (Gibco 14190-094) and loosened from the cell flasks with Versene (Gibco, 15040-033). […] Cells were aliquoted and stored at −180° C. until use. […]
Numbered stars: 1 amine (or outer) side, 2 acyl side, 3 side chain; on linkers, the order of the positions; unused ones are H or OH. Square brackets hold non-standard residues; d marks the D form. Side chains are listed from the residue outwards. * marks the point of attachment. C18 diacid = O=C(O)CCCCCCCCCCCCCCCCC(=O)*; C16 diacid = O=C(O)CCCCCCCCCCCCCCC(=O)*; γGlu = O=C(O)[C@H](CCC(=O)[*:2])N[*:1]; AEEA = NCCOCCOCC(=O)O; Aib = CC(C)(N)C(=O)O
MEASUREMENT_LABEL: EC50

Under human GLP-1 receptor (hGLP-1R) (Homo sapiens): EC50 value of Y[Aib]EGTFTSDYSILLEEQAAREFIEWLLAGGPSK([AEEA-AEEA-γGlu-C16 diacid])GASELSTAALGRLSAELHRLATLPRTETGSGSP-NH2 [Compound 20] ? 0.0406 nM

Under human GLP-1 receptor (hGLP-1R) (Homo sapiens): EC50 value of H[Aib]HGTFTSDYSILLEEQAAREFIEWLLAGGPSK([AEEA-AEEA-γGlu-C18 diacid])GEASQLSTAALGRLSAELHGLATLPRTETGSGSP-NH2 [Compound 65] ? 0.00486 nM

Under human GLP-1 receptor (hGLP-1R) (Homo sapiens): EC50 value of H[Aib]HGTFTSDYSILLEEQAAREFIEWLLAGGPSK([AEEA-AEEA-γGlu-C18 diacid])GAPPPSGGGEASELSTAALGRLSAELHELATLPRTETGSGSP-NH2 [Compound 15] ? 0.00141 nM

Under human GLP-1 receptor (hGLP-1R) (Homo sapiens): EC50 value of Y[Aib]EGTFTSDYSILLEEQAAREFIEWLLAGGPSSGAGQAPGQAPLASHLSTAQTQRLSAELHK([AEEA-AEEA-γGlu-C18 diacid])LATLPRTETGSGSP-NH2 [compound 58] ? 0.0127 nM

Under human GLP-1 receptor (hGLP-1R) (Homo sapiens): EC50 value of H[Aib]HGTFTSDYSILLEEQAAREFIEWLLAGGPSSGAGQAPGQAPGASHLSTAQTQRLSAK([AEEA-AEEA-γGlu-C18 diacid])LHRLATLPRTETGSGSP-NH2 [Compound 78] ? 0.00403 nM

Under human GLP-1 receptor (hGLP-1R) (Homo sapiens): EC50 value of Y[Aib]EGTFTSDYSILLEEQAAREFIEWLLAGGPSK([AEEA-AEEA-γGlu-C18 diacid])GAPPEASELSTAALGRLSAELHELATLPRTETGSGSP-NH2 [Compound 33] ? 0.0321 nM

Under human GLP-1 receptor (hGLP-1R) (Homo sapiens): EC50 value of H[Aib]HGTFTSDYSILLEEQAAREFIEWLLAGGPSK([AEEA-AEEA-γGlu-C18 diacid])GAPPPSGGGEASHLSTAQTARLSAELHQLATLPRTETGSGSP-NH2 [compound 101] ? 0.00324 nM

Under human GLP-1 receptor (hGLP-1R) (Homo sapiens): EC50 value of Y[Aib]EGTFTSDYSILLEEQAAREFIEWLLAGGPSSGEASHLSTAQTQRLSAELHK([AEEA-AEEA-γGlu-C18 diacid])LATLPRTETGSGSP-NH2 [Compound 50] ? 0.0162 nM

Under human GLP-1 receptor (hGLP-1R) (Homo sapiens): EC50 value of Y[Aib]EGTFTSDYSILLEEQAAREFIEWLLAGGPSSGAGQAPGQAPGASHLSTAQTQRLSAELHRLK([AEEA-AEEA-AEEA-γGlu-C18 diacid])TLPRTETGSGSP-NH2 [Compound 111] ? 0.0159 nM

Under human GLP-1 receptor (hGLP-1R) (Homo sapiens): EC50 value of Y[Aib]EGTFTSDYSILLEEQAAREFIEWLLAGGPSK([AEEA-AEEA-γGlu-C18 diacid])GEASHLSTAQTQRLSAELHELATLPRTETGSGSP-NH2 [Compound 34] ? 0.0217 nM

Under human GLP-1 receptor (hGLP-1R) (Homo sapiens): EC50 value of Y[Aib]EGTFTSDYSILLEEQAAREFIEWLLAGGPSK([AEEA-AEEA-γGlu-C16 diacid])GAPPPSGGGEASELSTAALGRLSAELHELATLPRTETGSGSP-NH2 [compound 10] ? 0.0138 nM
